# System: SNB-19 CNS
# Experiment: NCI-60 one-dose screen, 48 h (100 = growth as untreated, 0 = no growth, -100 = all killed)
# Details: 10 µM unless noted
Compounds without any hit were thinned out: in the full panel of roughly 83,000, 20% have a hit. Active and inactive are the calls of the source. Rule for the calls: active = growth percent below 10; inactive = the rest.
Observed Property: growth

1) COc1cc2c3c(c4c5ccccc5[nH]c4c2c(OC)c1OC)C(=O)N(CCN1CCOCC1)C3=O	51.9% (inactive)
2) O=[N+]([O-])c1cc(Br)c2cccc3c2c1CC3	98.7% (inactive)
3) COc1ccc2nc(-c3ccc(-c4noc(-c5cc(OC)c(OC)c(OC)c5)n4)cc3)[nH]c2c1	76.8% (inactive)
4) COc1cccc(-c2nc3occn3c2-c2ccnc(NCCCNS(=O)(=O)c3ccc(C(F)(F)F)cc3)n2)c1	105% (inactive)
5) COc1ccc(C(=O)C2C(C#N)C(C#N)C3c4ccccc4C=CN23)cc1 (stereo not given)	85.4% (inactive)

# return recorded growth for entry Cc1c(C(=O)NCCC(=O)NO)sc2ncnc(Nc3ccc(NC(=O)Nc4cccc(C(F)(F)F)c4)cc3)c12 93.6% (inactive)

Output growth of COc1cc2nc(-c3ccc(C(F)(F)F)cc3)cc(OCCN3CCCCC3)c2cc1OC 91.1% (inactive)

Give recorded growth. O=C(/C=C/c1ccc(F)cc1)c1ccc(NC(=O)N2CCN(c3cc4c(cc3F)c(=O)c(C(=O)O)cn4C3CC3)CC2)cc1 88.1% (inactive)

Please look at this compound and report its growth: CNCCn1c(=O)c2cc(OC)c(OC)cc2c2ccc3cc4c(cc3c21)OCO4 8.32% (active)

Quickly give me recorded growth for CCOC(=O)c1cc(C(=O)c2ccc(Br)cc2)n2ccc(/C=C/c3cc[n+](CC(=O)c4ccc(OC)cc4)cc3)cc12 89.1% (inactive)

* * *

In this section, each of the molecules is paired with its reported growth.
# Test system: SK-MEL-5 melanoma
# Experiment: NCI-60 one-dose screen, 48 h (100 = growth as untreated, 0 = no growth, -100 = all killed)
# Details: 10 µM unless noted
This is part of a sample that, as a whole, favours compounds with a hit. Of some 83,000 tested, about 20% had one in any assay.
Quick reminder: number only, in %, skip the unit.

Some molecules with recorded growth:
1. CN1C(N2CCN(S(=O)(=O)c3ccccc3)CC2)=NS(=O)(=O)c2ccccc21	104
2. O=C1c2ccccc2CCC12OC2c1cn(-c2ccccc2)nc1-c1ccc(Cl)cc1 (configuration not stated)	83.1
3. O=C(Cc1ccc(/C=C/C(=O)c2nccs2)cc1)Nc1ccccc1	88.8

Return reported growth. Input molecule: N#CC1=C(N)Oc2c(ccc3ccccc23)C1c1ccccc1Cl (configuration not stated) 9.89

* * *

# Test system: MOLT-4 leukemia
# Experiment: NCI-60 one-dose screen, 48 h
# Details: 10 µM unless noted
This is part of a sample that, as a whole, favours compounds with a hit. Of some 83,000 tested, about 20% had one in any assay. Activity calls are given as the source filed them. The calls were made as follows: active = growth percent below 10; inactive = the rest.
Field 'call' accepts active, inactive

1) C=CC(=O)N[C@@H](/C=C/C(=O)OCC)Cc1ccc(-c2cc(Cl)cc(Cl)c2)cc1	active
2) Clc1ccc(-c2ccc(CNCC3CCNCC3)o2)c(-c2ccccc2)c1	active
3) N=C1C(c2nc3ccccc3s2)=C(O)CN1c1cc(Cl)cc(Cl)c1	inactive
4) CCc1c2c(nc3ccc(OCc4ccc(B(O)O)cc4)cc13)-c1cc3c(c(=O)n1C2)COC(=O)[C@]3(O)CC	active
5) NC1=NN=C(N)C1=Cc1cc2ccccc2n2nnnc12	inactive

Read the next record carefully.
Look up the recorded call for O=Cc1ccc(-c2cn3ccnc3c(-c3ccc4ncn(Cc5ccccc5)c4c3)n2)cc1 in this test. inactive
